tested on: CAMK4; conditions: concentration: 1 μM, replicates: in singlicate; n = 1;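 also: KINOMEscan kinase panel screen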
reported_endpoint: %Inh (%)

O=C(O)C(F)(F)F.O=c1[nH]ccc2nc(N[C@@H]3CCNC3)nc(Nc3ccc4c(c3)S(=O)(=O)CC4)c12 [GSK2181306] : 98.5
Cn1cc(-c2cnc(N)c3c(-c4ccc5c(c4)CCN5C(=O)Cc4ccccc4)csc23)cn1 [GSK2593074] : 0
Nc1cccc(-c2ccc3c(N)n[nH]c3c2)c1 [GSK2193613] : 0
Cc1ccc(Nc2ccnc(Nc3ccc(C)c(F)c3)n2)cc1O.Cl [GW582868] : 0
Cc1ccc(NC(=O)c2ccc(Cl)c(Cl)c2)cc1-c1ccc(C(=O)Nc2ccncc2)cc1 [GSK1398460] : 9
COC(=O)Nc1nc2ccc(Oc3ccc(CC(=O)Nc4cc(C(F)(F)F)ccc4F)cc3)cc2[nH]1 [GW680903] : 0

###

tested on: RIPK1; conditions: concentration: 1 μM, replicates: in singlicate; n = 1
reported_endpoint: %Inh (%)

CS(=O)(=O)c1cccc(CNc2nc(Nc3ccc4c(c3)CCC(=O)N4)ncc2C(F)(F)F)c1 : 0
Nc1cccc(-c2ccc3c(N)n[nH]c3c2)c1 : 0
CC(C)NCC(Cc1ccccc1)NC(=O)c1cc(Br)c(-c2ccnc3[nH]ccc23)s1.Cl.Cl (stereo not drawn) : 0
Cc1ccc(-c2ccc3occ(-c4ccc(S(C)=O)cc4)c3c2)nn1 (stereo not drawn) : 0
Cn1cc(-c2cnc(N)c3c(-c4ccc5c(c4)CCN5C(=O)Cc4ccccc4)csc23)cn1 : 100
CN(c1ccc(NC(=O)N2CCN(CCCN3CCOCC3)CC2)cc1)c1ccnc(Nc2ccc(CS(C)(=O)=O)cc2)n1.Cl : 4

###

system: NIK; construct: gene MAP3K14; details: concentration: 1 μM, replicates: in singlicate; n = 1
Parameter %Inh: see the listing below.
reported_endpoint: %Inh (%)

CN(C)CCOc1ccc(-c2cc(-c3ccc(Cl)c(O)c3)c(-c3ccncc3)[nH]2)cc1.Cl.Cl : 0
O=C(Nc1n[nH]c2nc(-c3cccc(O)c3)ccc12)C1CC1 : 8
Cn1cc(-c2ccc3c(c2)CCN3C(=O)Cc2cc(F)cc(F)c2F)c2c(N)ncnc21 : 26
CCn1cnc2c(NCc3ccccc3)ncnc21 : 32
COc1ccc(C)c(Nc2ccnc(Nc3ccc(-c4cnc[nH]4)cc3)n2)c1.Cl : 0
Cc1cccc(Nc2nc(NCCN)ncc2C(N)=O)c1 : 0
Cn1cc(-c2ccc3c(c2)CCN3C(=O)Cc2cc(F)cc(C(F)(F)F)c2)c2c(N)ncnc21 : 15
COc1cccc(C2=C(Nc3cccc(O)c3)C(=O)NC2=O)c1 : 7
N#CC1(c2cccc(C(=O)Nc3cccc(Oc4ccc5nc(NC(=O)C6CC6)sc5n4)c3)c2)CC1 : 0

###

Parameter %Inh: see the listing below.
system: MTOR; details: concentration: 1 μM, replicates: in singlicate; n = 1
reported_endpoint: %Inh (%)

COC(=O)Nc1nc2ccc(Oc3ccc(CC(=O)Nc4cc(C(F)(F)F)ccc4F)cc3)cc2[nH]1 : 26
COc1cccc(C2=C(Nc3cccc(O)c3)C(=O)NC2=O)c1 : 38
Cl.O=C(Nc1ccc(Oc2ccc3[nH]c(NC(=O)c4ccco4)nc3c2)cc1)Nc1cc(C(F)(F)F)ccc1F : 5

###

test system: CSF1R; conditions: concentration: 1 μM, replicates: in singlicate; n = 1
reported_endpoint: %Inh

Nc1ncc(-c2ccc3nccc(-c4ccncc4)c3c2)cc1S(=O)(=O)N1CCCCC1 [GSK1693850] : 4%
CNc1nccc(-c2ccc3c(N)n[nH]c3c2)n1 [GSK2206003] : 6%
COc1cccc(CC(=O)N2CCc3cc(-c4cn(C)c5ncnc(N)c45)ccc32)c1 [GSK2608899] : 96.9%
Cc1ccc(NC(=O)c2ccnc(N3CCCCC3)c2)cc1-c1ccc(C(=O)NCC2CC2)cc1 [GW775610] : 23%
Cc1nn2c(=O)cc(N3CCO[C@H](C)C3)nc2n1Cc1cccc(Cl)c1Cl [GSK2373693] : 6%

###

Parameter %Inh: see the listing below.
tested on: MAP4K2; conditions: concentration: 1 μM, replicates: in singlicate; n = 1
reported_endpoint: %Inh (%)

O=C(Nc1n[nH]c2cc(-c3cccs3)ccc12)C1CC1 [SB-731284] : 9
Cc1ccc(-c2ccc3occ(-c4ccc(S(C)=O)cc4)c3c2)nn1 (stereo not drawn) : 0
Cl.Cl.NC(CNC(=O)c1cc(Br)c(-c2ccnc3[nH]ccc23)s1)c1ccccc1 (stereo not drawn) [GSK1322949] : 56
COc1ccc(C2=C(Nc3cccc(O)c3)C(=O)NC2=O)cc1 [SB-390766] : 0
Cc1ccc(Nc2ccnc(Nc3ccc(C)c(F)c3)n2)cc1O.Cl [GW582868] : 0
CCn1cnc2c(NCc3ccccc3)ncnc21 [SKF-96418] : 0
CN(C)c1ncnc2nc[nH]c12 [SKF-31736] : 0
Cl.Cl.NCC(NC(=O)c1cc(-c2cccnc2)c(-c2ccnc3[nH]ccc23)s1)c1ccccc1 (stereo not drawn) [GSK1323434] : 41
Cn1cc(-c2ccc3c(c2)CCN3C(=O)Cc2cc(F)cc(C(F)(F)F)c2)c2c(N)ncnc21 [GSK2635225] : 0
CN(c1ccc2c(c1)nc(NCc1ccccc1)n2C)c1ccnc(Nc2ccc(CS(C)(=O)=O)cc2)n1.Cl [GW811603] : 0
Cc1ccc(NC(=O)c2ccnc(N3CCCCC3)c2)cc1-c1ccc(C(=O)NCC2CC2)cc1 [GW775610] : 0
O=C(O)C(F)(F)F.O=c1[nH]ccc2nc(N[C@@H]3CCNC3)nc(Nc3cc(Cl)cc(Cl)c3)c12 [GSK2188764] : 99.9

###

test system: ULK2; settings: concentration: 1 μM, replicates: in singlicate; n = 1
reported_endpoint: %Inh (%)

Cl.Cl.NCC(NC(=O)c1cc(-c2cccnc2)c(-c2ccnc3[nH]ccc23)s1)c1ccccc1 (stereo not shown) : 0
CCn1cnc2c(NCc3ccccc3)ncnc21 : 38
O=C(O)C(F)(F)F.O=c1[nH]ccc2nc(N[C@@H]3CCNC3)nc(Nc3cc(Cl)cc(Cl)c3)c12 : 99.9
Cc1cccc(Nc2nc(N[C@H]3CCCC[C@H]3N)ncc2C(N)=O)c1.Cl : 80

###

Parameter %Inh: see the listing below.
test system: LATS2; conditions: concentration: 1 μM, replicates: in singlicate; n = 1
reported_endpoint: %Inh (%)

Fc1cc(Cl)ccc1Nc1ccnc2cc(-c3ccc(CN4CCOCC4)o3)ccc12 : 0
Cc1ccc(NC(=O)c2ccc(Cl)c(Cl)c2)cc1-c1ccc(C(=O)Nc2ccncc2)cc1 : 3
Cc1ccc(C)c(NC(=O)Nc2ccc(C)c(-c3ccc(C(=O)Nc4ccncc4)cc3)c2)c1 : 0
CCn1c(-c2nonc2N)nc2c(-c3ccccc3)ncc(OCCCN)c21.O=C(O)C(F)(F)F.O=C(O)C(F)(F)F : 93.8
CC(C)c1nc(-c2ccc(F)c(NS(=O)(=O)c3c(F)cccc3F)c2)c(-c2ccnc(Nc3ccc(N4CCOCC4)nc3)n2)s1 : 0

###

tested on: MAP4K3; conditions: concentration: 1 μM, replicates: in singlicate; n = 1
Parameter %Inh: see the listing below.
reported_endpoint: %Inh

CN(C)CCNS(=O)(=O)c1ccc(-c2ccnc3[nH]ccc23)cc1 : 31%
COc1cccc(C2=C(Nc3cccc(O)c3)C(=O)NC2=O)c1 : 0%
Nc1ncc(-c2cn[nH]c2)c2scc(-c3ccc4c(c3)CCN4C(=O)Cc3ccccc3)c12 : 98.9%
O=C(O)C(F)(F)F.O=c1[nH]ccc2nc(N[C@@H]3CCNC3)nc(Nc3ccc4c(c3)S(=O)(=O)CC4)c12 : 96%
Cc1ccccc1CC(=O)N1CCc2cc(-c3cn(C)c4ncnc(N)c34)ccc21 : 97.8%
CCOc1nccc(-c2c(-c3ccc(F)cc3)ncn2C2CCNCC2)n1 : 0%
COC(=O)Nc1nc2cc(Oc3ccc(NC(=O)Nc4cccc(SC)c4)cc3)ccc2[nH]1.Cl : 0%
CN(c1ccc(NC(=O)Nc2cccc(Cl)c2)cc1)c1ccnc(N)n1.Cl : 0%
Cc1ccc(NC(=O)c2ccc(Cl)c(Cl)c2)cc1-c1ccc(C(=O)Nc2ccncc2)cc1 : 0%
CCNc1nccc(-c2c(-c3ccc(F)cc3)ncn2C2CCN(C)CC2)n1 : 0%
Fc1cc(Cl)ccc1Nc1ccnc2cc(-c3ccc(CN4CCOCC4)o3)ccc12 : 72%
N#Cc1cnc2cc(-c3cnc(CNCCN4CCOCC4)s3)ccc2c1Nc1ccc(Oc2ccccc2)cc1 : 98.9%
CCNC(=O)/C=C/c1n[nH]c2cc(Sc3ccccc3C(=O)NC)ccc12 : 65%
Cn1cc(-c2cnc(N)c3c(-c4ccc5c(c4)CCN5C(=O)Cc4ccccc4)csc23)cn1 : 97.6%
CC(C)NCC(Cc1ccccc1)NC(=O)c1cc(Br)c(-c2ccnc3[nH]ccc23)s1.Cl.Cl (stereo not shown) : 0%
CN1CCN(Cc2ccc(NC(=O)Nc3ccc(N(C)c4ccnc(Nc5ccc(CS(C)(=O)=O)cc5)n4)cc3)cc2)CC1.Cl : 95.5%
CC(=O)Nc1cn2nc(Oc3cccc(NC(=O)c4cccc(C(F)(F)F)c4)c3)ccc2n1 : 91.7%
Cc1ccc(C)c(NC(=O)Nc2ccc(C)c(-c3ccc(C(=O)Nc4ccncc4)cc3)c2)c1 : 2%
CN(c1ccc2c(c1)nc(NCc1ccccc1)n2C)c1ccnc(Nc2ccc(CS(C)(=O)=O)cc2)n1.Cl : 33%
Nc1ncc(-c2ccc3nccc(-c4ccncc4)c3c2)cc1S(=O)(=O)N1CCCCC1 : 0%
CC(C)(C)c1ccc(C(=O)Nc2cn3cc(-n4ccnc4)ccc3n2)cc1 : 0%
Cc1ccc(Nc2ccnc(Nc3ccc(C)c(F)c3)n2)cc1O.Cl : 96.8%

// provenance: paper PMC5540273
